# Tested on: HCC1569;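 note: TDF denotes transformed human dermal fibroblasts of mesenchymal origin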
# measurement.notes: cell number relative to DMSO (% of DMSO); higher = more cells (less growth inhibition / toxicity)
# cond: concentration: 10 µM; 24 h
Below, each of the compounds is paired with its reported cell number value.
readout.label: cell number

>>> print(df.to_string())
                                   compound  study_system  readout_label  reported_measurement
0  O=c1c(O)c(-c2ccc(O)cc2O)oc2cc(O)cc(O)c12 [Morin]       HCC1569    cell number                  99.7
1  CCCn1c(=O)c2[nH]c(-c3ccc(OCC(=O)NCCN)cc3)nc2n(CCC)c1=O [Xanthine amine congener]       HCC1569    cell number                  97.6
2  CN(C)CCOC(C)(c1ccccc1)c1ccccn1.O=C(O)CCC(=O)O (centres undefined) [Doxylamine succinate]       HCC1569    cell number                  99.5
3  CCC=CCC=CCC=CCCCCCCCCCC(=O)O [Eicosatrienoic acid]       HCC1569    cell number                   101
4  O=c1cc(-c2cccc3c2Sc2ccccc2S3)oc(N2CCOCC2)c1       HCC1569    cell number                  83.2
5  CCCCCC=CCC=CCC=CC=CC(O)CCCC(=O)O (racemic)       HCC1569    cell number                   101
6  CC(=O)C1(O)CCC2C3CCC4=CC(=O)CCC4(C)C3CCC21C (stereo not drawn) [17alpha-hydroxyprogesterone]       HCC1569    cell number                  98.8
7  Cl.c1ccc2nc(C3=NCCN3)ccc2c1 [BU224 hydrochloride]       HCC1569    cell number                   101
8  O=C(O)C=Cc1cnc[nH]1 [4-Imidazoleacrylic acid]       HCC1569    cell number                   101
